The measured values listed here are drawn from PubChem BioAssay (NCI).

# Procedure text: NCI Yeast Anticancer Drug Screen. Data for the mec2-1 strain (AID 157)
# Condition info: S. cerevisiae mec2-1 strain, at 5.0 µM (retest, dose inferred, filed as 0.5), stronger effect = higher value
This is part of a sample that, as a whole, favours compounds with a hit. Of some 79,000 tested, about 15% had one in any assay. Activity calls are given as the source filed them. Cut-off read from the data, not from the text of the source: active = growth inhibition above about 70%; inactive = the rest.
Reported growth inhibition is given for each of the following molecules.
Measure name: growth inhibition

> print(dat)
                                    molecule    assay.result
 1               Oc1ccc(Cc2cccc(Br)c2)c(O)c1  -4% (inactive)
 2  c1ccc(Oc2ccc(Nc3c4ccccc4nc4ccccc34)cc2)cc1   4% (inactive)
 3  O=CNC(CCCC(=O)O)Cc1cc2ccccc2c2ccccc12 (configuration not stated)  13% (inactive)
 4            CSc1nc(SC)c2cn(Cc3ccccc3)nc2n1  -3% (inactive)
 5                 Cc1ccccc1NC(=S)Nc1ccccc1O  -2% (inactive)
 6  O=C1C=C(c2ccccc2)O/C1=C\C(=O)c1ccc(Cl)cc1  43% (inactive)
 7        Fc1ccc(NC(=S)SCc2ccc(Cl)cc2)c(F)c1  11% (inactive)
 8  Nc1nc(=O)n(C2OC(CO)C(O)C2O)cc1[N+](=O)[O-] (configuration not stated)  -6% (inactive)
 9                   ClC1=C(Cl)C(Cl)=C(Cl)C1   7% (inactive)
10          CCC=Nc1c(O)cc(-c2ccccc2)n(C)c1=O  35% (inactive)
11  CC(C)(C)c1ccc(-n2c3nc(=O)n(-c4ccccc4C(F)(F)F)c(=O)c-3cc3ccccc32)cc1   3% (inactive)
12  c1ccc2c(B(c3cccc4ccccc34)c3cccc4ccccc34)cccc2c1  14% (inactive)

###

# Procedure text: NCI Yeast Anticancer Drug Screen. Data for the sgs1 mgt1 strain (AID 161);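 note: 0% = growth of cultures given vehicle only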
# Condition info: S. cerevisiae sgs1 mgt1 strain, at 50.0 µM
About 79,000 compounds went through this panel and 15% of them were active in at least one assay; those are over-represented in the sample as a whole. Activity calls are given as the source filed them. Cut-off read from the data, not from the text of the source: active = growth inhibition above about 70%; inactive = the rest.
Outcomes: active, inactive

Compound	Class name
O=C(CC1C=Cc2ccccc2N1C(=O)c1ccccc1)c1ccccc1 (stereo not drawn)	inactive
Cc1c2ccccc2c(=O)n2c(-c3ccccn3)cccc12	active
CC(C)c1cc(O)c2c(c1O)C1CC3C(C)(C)CCC[C@]23C(=O)O1 (stereo partly drawn)	active
O=c1cccccc1O.O=c1cccccc1O.O=c1cccccc1O.[Ru]	active
NC(=O)C#CC#CC#CCO	active
Clc1ccccc1NN(Cc1ccccn1)c1ccccc1Cl	inactive
COc1ccc(OC)c(/C=C/c2ccnc3ccccc23)c1	active
Cn1c(CN(Cc2nc3ccccc3n2C)Cc2nc3ccccc3n2C)nc2ccccc21	inactive
Cc1cc(C2C(O)C(c3cc(C)on3)C2(C)O)no1 (stereo not drawn)	inactive
O=C1C2C3C=CC(C3)C2C(=NS(=O)(=O)c2ccccc2)C2C3C=CC(C3)C12 (stereo not drawn)	active
O=C(O)c1ccccc1SC(Sc1ccccc1C(=O)O)c1cccc(Cl)c1	active
Cc1ccc(O)c(Cc2cccc(Cl)c2)c1	active
CC(=O)c1nc2ccccc2n1C(C)C(=O)c1ccccc1 (stereo not drawn)	inactive
CCC(C)NC(=S)N/N=C(\C)c1ccccn1 (stereo not drawn)	active
O=C1c2cc([N+](=O)[O-])ccc2-c2cc([N+](=O)[O-])ccc21	active
CCC(C)n1c(C)nc2c(N)cc(C(F)(F)F)cc21 (stereo not drawn)	active
CCCc1cc2c(cc1CS(=O)(=O)CC)OCO2	inactive
COC(=O)C(=O)/C=C(/O)c1ccc(OC)cc1	inactive
CC(=O)c1ccc(Cl)c(N=Cc2cc(Br)ccc2O)c1	inactive
Cc1nn(-c2ccc(Cl)cc2)c2nc(N)nc(N)c12	inactive
CC1c2cc(c3c(c2O)CN([C@@H](C)C2CCCCC2)CO3)C(C)c2cc(c3c(c2O)CN([C@@H](C)C2CCCCC2)CO3)C(C)c2cc(c3c(c2O)CN([C@@H](C)C2CCCCC2)CO3)C(C)c2cc1c1c(c2O)CN([C@@H](C)C2CCCCC2)CO1 (stereo partly drawn)	inactive
CCCCCCCCCCOC1C(C(O)CNCCCN(C)C)OC2OC3(CCCCC3)OC21 (stereo not drawn)	active
O=c1[nH]c(=O)c2cc([N+](=O)[O-])cc([N+](=O)[O-])c2[nH]1	inactive
N#Cc1cn(-c2c3ccccc3nc3ccccc23)c(=O)[nH]c1=O	inactive
C=CCNC(=O)NC(=O)CSC1=NNC2(C(=O)N1)c1ccccc1-c1ccccc12	active
O=C1O/C(=C(/Cl)c2c3ccccc3cc3ccccc23)c2ccccc21	active
CC(C)(C)CC(C)(C)N[P+](NC(C)(C)CC(C)(C)C)(NC(C)(C)CC(C)(C)C)NC(C)(C)CC(C)(C)C	active
Cc1ccc(C2SCC(=O)N2c2ccc(-n3c(-c4ccccc4)nc4ccccc4c3=O)cc2)cc1 (stereo not drawn)	active
COC1=Nc2ccccc2S(=O)(=O)C=C1	active
COc1ccc(/C=C2\NC(=O)NC2=O)cc1	inactive
Cc1noc(NS(=O)(=O)c2ccc(NC(=S)/N=C/c3c(O)[nH]c(=O)[nH]c3=O)cc2)c1C	inactive
OCCCCCCCCCl	inactive
C=CS(=O)(=O)c1ccc(C)cc1	active
O=C(CC1CCCC(CC(=O)c2ccccc2)N1CCc1ccccc1)c1ccccc1 (stereo not drawn)	active
CC1(C)CC[C@]2(C(=O)O)[C@H](O)C[C@]3(C)C(=CC[C@@H]4[C@@]5(C)CC[C@H](OC6OCC(O)C(O)C6OC6OCC(O)C(O)C6OC6OCC(O)C(O)C6O)C(C)(C)[C@@H]5CC[C@]43C)[C@@H]2C1 (stereo partly drawn)	inactive
COc1ccc(C=O)cc1C[P+](c1ccccc1)(c1ccccc1)c1ccccc1	active
CCCC/C=C1\CCC(CN2CCCCC2)C1=O (stereo not drawn)	active
CCCCCCC(=O)OCCN(CCOC(=O)CCCCCC)C(=O)C(C)OC(=O)CCCCCC (stereo not drawn)	active
CN(C)c1ccc(C=Nc2cnc3ccccc3c2)cc1	inactive
O=C(O)C(O)Cc1ccc(O)cc1 (stereo not drawn)	inactive
O=S(=O)(Nc1ccccn1)c1ccc(NCc2c3ccccc3nc3cc(Cl)ccc23)cc1	inactive
O=C(O)C(O)C(O)C(OC1OC(CO)C(O)C(O)C1O)C(O)CO.[Br][Pt].[NH-]C1CCCCC1[NH-] (stereo not drawn)	active
CC(C)Cc1cc(O)cc2ccccc12	active
